Where these numbers come from: patent US6972296B2

target: α4β1 integrin (Homo sapiens, UniProt P05556+P13612); construct: endogenous in cells; host or cells: Ramos cells; test: Adhesion of calcein-labeled Ramos cells to CS1 (fibronectin) peptide conjugated ovalbumin; format: cell-based; settings: Table 3; Ramos cell adhesion to CS1 conjugated ovalbumin, 30 minutes at 37° C.
Sequence (P13612 34-1032): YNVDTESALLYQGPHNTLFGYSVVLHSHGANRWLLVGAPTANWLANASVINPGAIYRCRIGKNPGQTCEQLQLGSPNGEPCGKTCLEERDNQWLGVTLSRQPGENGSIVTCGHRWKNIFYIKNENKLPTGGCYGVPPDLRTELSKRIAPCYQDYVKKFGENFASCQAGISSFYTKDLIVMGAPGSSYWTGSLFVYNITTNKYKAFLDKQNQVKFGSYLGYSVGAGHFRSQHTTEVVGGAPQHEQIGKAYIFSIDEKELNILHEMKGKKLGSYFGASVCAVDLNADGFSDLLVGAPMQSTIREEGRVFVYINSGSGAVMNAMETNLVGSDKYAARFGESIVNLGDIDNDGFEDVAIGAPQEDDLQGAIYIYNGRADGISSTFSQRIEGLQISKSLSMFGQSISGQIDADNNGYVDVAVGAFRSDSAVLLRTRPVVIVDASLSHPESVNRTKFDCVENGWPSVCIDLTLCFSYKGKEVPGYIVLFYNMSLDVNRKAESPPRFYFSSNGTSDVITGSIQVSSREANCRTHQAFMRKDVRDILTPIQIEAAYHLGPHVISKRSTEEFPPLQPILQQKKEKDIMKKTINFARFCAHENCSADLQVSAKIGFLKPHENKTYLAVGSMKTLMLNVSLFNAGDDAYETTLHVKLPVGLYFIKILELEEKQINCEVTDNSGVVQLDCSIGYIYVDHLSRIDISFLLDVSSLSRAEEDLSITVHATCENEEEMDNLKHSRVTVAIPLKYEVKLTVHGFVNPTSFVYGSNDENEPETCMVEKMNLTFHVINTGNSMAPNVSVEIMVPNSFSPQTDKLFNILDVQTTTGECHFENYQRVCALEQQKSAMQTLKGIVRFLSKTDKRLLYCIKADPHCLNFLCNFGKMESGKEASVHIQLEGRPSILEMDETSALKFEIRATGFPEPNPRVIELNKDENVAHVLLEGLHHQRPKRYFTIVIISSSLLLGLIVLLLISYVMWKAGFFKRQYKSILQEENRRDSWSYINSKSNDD
Sequence (P05556 21-798): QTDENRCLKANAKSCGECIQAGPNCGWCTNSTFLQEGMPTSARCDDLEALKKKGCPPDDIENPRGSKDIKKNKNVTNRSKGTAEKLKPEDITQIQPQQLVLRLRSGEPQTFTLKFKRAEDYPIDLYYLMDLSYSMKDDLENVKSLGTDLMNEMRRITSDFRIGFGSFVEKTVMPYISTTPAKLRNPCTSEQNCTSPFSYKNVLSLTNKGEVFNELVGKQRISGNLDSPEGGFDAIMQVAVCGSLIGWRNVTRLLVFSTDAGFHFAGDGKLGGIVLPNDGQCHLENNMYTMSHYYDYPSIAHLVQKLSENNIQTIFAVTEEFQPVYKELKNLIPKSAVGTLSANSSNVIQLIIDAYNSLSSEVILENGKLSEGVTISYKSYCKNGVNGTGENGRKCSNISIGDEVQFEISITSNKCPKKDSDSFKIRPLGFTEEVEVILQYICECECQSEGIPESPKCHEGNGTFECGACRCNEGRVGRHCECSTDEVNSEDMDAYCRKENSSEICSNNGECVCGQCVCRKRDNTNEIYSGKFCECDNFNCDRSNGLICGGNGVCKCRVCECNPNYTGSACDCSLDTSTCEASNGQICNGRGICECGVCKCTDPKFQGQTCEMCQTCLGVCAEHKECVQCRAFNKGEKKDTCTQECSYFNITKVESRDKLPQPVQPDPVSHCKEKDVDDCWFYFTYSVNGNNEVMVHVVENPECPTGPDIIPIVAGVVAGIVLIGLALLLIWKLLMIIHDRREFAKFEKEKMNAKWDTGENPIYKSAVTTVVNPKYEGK
Form field: IC50 (one value per entry).
Could you give me the number in nM? Just the number is fine.

1) Cc1ccc([C@H](CC(=O)O)NC(=O)Nc2c(O)c3ccccc3n(Cc3ccccc3Cl)c2=O)cc1
8

[ask] Return IC50 (reported value) for this compound: Cc1ccc([C@H](CC(=O)O)NC(=O)Nc2c(O)cc(C)n(Cc3ccccc3Cl)c2=O)cc1
[reply] 15

[ask] Return IC50 (reported value) for this compound: Cc1ccc([C@H](CC(=O)O)NC(=O)Nc2c(OCc3ccccc3)cc(C)n(Cc3ccccc3)c2=O)cc1
[reply] 5

[ask] Return IC50 (reported value) for this compound: Cc1ccc([C@H](CC(=O)O)NC(=O)Nc2c(O)ccn(Cc3ccccc3F)c2=O)cc1
[reply] 30

[ask] Return IC50 (reported value) for this compound: Cc1ccc([C@H](CC(=O)O)NC(=O)Nc2c(C)ccn(Cc3ccccc3Cl)c2=O)cc1C
[reply] 10
